- Test system: 556581-035-R-J1-PDC complex spheroid growth
- experiment: Anticancer human tumor 556581-035-R-J1-PDC patient-derived ovarian carcinoma cell line growth inhibition [Asc]
- condition-context: second compound 1 µM; first compound 0.1 µM; hits give low values
Assign viability, T/C to each entry below.
Dear colleague, please return just the value in %, with no unit written.

What value of viability, T/C has been recorded for this entry: O=C(c1cc(Cc2n[nH]c(=O)c3ccccc23)ccc1F)N1CCN(C(=O)C2CC2)CC1 + CNC(C)C(=O)NC1CN(S(=O)(=O)c2cccc(S(=O)(=O)N3CCC4CCC(C(=O)NC(c5ccccc5)c5ccccc5)N4C(=O)C(NC(=O)C(C)NC)C3)c2)CCC2CCC(C(=O)NC(c3ccccc3)c3ccccc3)N2C1=O 84.1

What value of viability, T/C has been recorded for this entry: O=C(c1cc(Cc2n[nH]c(=O)c3ccccc23)ccc1F)N1CCN(C(=O)C2CC2)CC1 + Cc1c(S(C)(=O)=O)c(-c2cc(F)cc(N3CCN(c4ccc(NS(=O)(=O)c5ccc(NC(CCN6CCC(C(=O)OCCCP(=O)(O)O)CC6)CSc6ccccc6)c(S(=O)(=O)C(F)(F)F)c5)cc4)CC3)c2)c(-c2ccc(Cl)cc2)n1C(C)C 69

What value of viability, T/C has been recorded for this entry: CCN1CCN(Cc2ccc(Nc3ncc(F)c(-c4cc(F)c5nc(C)n(C(C)C)c5c4)n3)nc2)CC1 + Cc1c(S(C)(=O)=O)c(-c2cc(F)cc(N3CCN(c4ccc(NS(=O)(=O)c5ccc(NC(CCN6CCC(C(=O)OCCCP(=O)(O)O)CC6)CSc6ccccc6)c(S(=O)(=O)C(F)(F)F)c5)cc4)CC3)c2)c(-c2ccc(Cl)cc2)n1C(C)C 77.3

###

- System: 556581-035-R-J1-PDC complex spheroid growth
- experiment: Anticancer human tumor 556581-035-R-J1-PDC cell line growth inhibition [Asc];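 also: spheroids exposed to agents for 7 days before viability read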
- condition-context: second compound 10 µM; first compound 0.01 µM; hits give low values
observed-property: viability, T/C (%)
Dear colleague, please return just the value in %, with no unit written.

What value of viability, T/C has been recorded for this entry: CNC(C)C(=O)NC1CN(S(=O)(=O)c2cccc(S(=O)(=O)N3CCC4CCC(C(=O)NC(c5ccccc5)c5ccccc5)N4C(=O)C(NC(=O)C(C)NC)C3)c2)CCC2CCC(C(=O)NC(c3ccccc3)c3ccccc3)N2C1=O (stereo not drawn) + Cc1c(S(C)(=O)=O)c(-c2cc(F)cc(N3CCN(c4ccc(NS(=O)(=O)c5ccc(NC(CCN6CCC(C(=O)OCCCP(=O)(O)O)CC6)CSc6ccccc6)c(S(=O)(=O)C(F)(F)F)c5)cc4)CC3)c2)c(-c2ccc(Cl)cc2)n1C(C)C 35.1

What value of viability, T/C has been recorded for this entry: O=C(c1ccc(F)c(F)c1Nc1ccc(I)cc1F)N1CC(O)([C@@H]2CCCCN2)C1 + Cc1c(S(C)(=O)=O)c(-c2cc(F)cc(N3CCN(c4ccc(NS(=O)(=O)c5ccc(NC(CCN6CCC(C(=O)OCCCP(=O)(O)O)CC6)CSc6ccccc6)c(S(=O)(=O)C(F)(F)F)c5)cc4)CC3)c2)c(-c2ccc(Cl)cc2)n1C(C)C 51.9

What value of viability, T/C has been recorded for this entry: NC1CCC(NC2CC2c2ccccc2)CC1 (stereo not drawn) + Cc1c(S(C)(=O)=O)c(-c2cc(F)cc(N3CCN(c4ccc(NS(=O)(=O)c5ccc(NC(CCN6CCC(C(=O)OCCCP(=O)(O)O)CC6)CSc6ccccc6)c(S(=O)(=O)C(F)(F)F)c5)cc4)CC3)c2)c(-c2ccc(Cl)cc2)n1C(C)C 50.1

###

- System: 556581-035-R-J1-PDC complex spheroid growth
- experiment: Anticancer human tumor 556581-035-R-J1-PDC cell line growth inhibition [Asc];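 also: spheroids exposed to agents for 7 days before viability read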
- condition-context: second compound 1 µM; first compound 3.16 µM; hits give low values
- Text: Multicellular complex tumor spheroid response to apoptosis pathway targeting inhibitors Alrizomadlin, Pelcitoclax, and Dasminapant in combination with a variety of drugs and investigational agents in selected tumor cell lines […] Compounds. […] If the clinical Cmax for an agent had not been determined, the highest concentration tested was 10 microM. […]
Assign viability, T/C to each entry below.

What value of viability, T/C has been recorded for this entry: C=CC(=O)N1CCN(c2nc(=O)n(-c3c(C)ccnc3C(C)C)c3nc(-c4c(O)cccc4F)c(F)cc23)C(C)C1 (stereo not drawn) + CNC(C)C(=O)NC1CN(S(=O)(=O)c2cccc(S(=O)(=O)N3CCC4CCC(C(=O)NC(c5ccccc5)c5ccccc5)N4C(=O)C(NC(=O)C(C)NC)C3)c2)CCC2CCC(C(=O)NC(c3ccccc3)c3ccccc3)N2C1=O 87.2%

What value of viability, T/C has been recorded for this entry: O=C(c1cc(Cc2n[nH]c(=O)c3ccccc23)ccc1F)N1CCN(C(=O)C2CC2)CC1 + CNC(C)C(=O)NC1CN(S(=O)(=O)c2cccc(S(=O)(=O)N3CCC4CCC(C(=O)NC(c5ccccc5)c5ccccc5)N4C(=O)C(NC(=O)C(C)NC)C3)c2)CCC2CCC(C(=O)NC(c3ccccc3)c3ccccc3)N2C1=O 45.7%

What value of viability, T/C has been recorded for this entry: O=C(c1cc(Cc2n[nH]c(=O)c3ccccc23)ccc1F)N1CCN(C(=O)C2CC2)CC1 + Cc1c(S(C)(=O)=O)c(-c2cc(F)cc(N3CCN(c4ccc(NS(=O)(=O)c5ccc(NC(CCN6CCC(C(=O)OCCCP(=O)(O)O)CC6)CSc6ccccc6)c(S(=O)(=O)C(F)(F)F)c5)cc4)CC3)c2)c(-c2ccc(Cl)cc2)n1C(C)C 66.3%

###

- System: 556581-035-R-J1-PDC complex spheroid growth
- experiment: Anticancer human tumor 556581-035-R-J1-PDC cell line growth inhibition [Asc];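 also: spheroids exposed to agents for 7 days before viability read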
- condition-context: second compound 1 µM; first compound 0.316 µM; hits give low values
Assign viability, T/C to each entry below.
Dear colleague, please return just the value in %, with no unit written.

What value of viability, T/C has been recorded for this entry: C#Cc1c(F)ccc2cc(O)cc(-c3ncc4c(N5CC6CCC(C5)N6)nc(OCC56CCCN5CC(F)C6)nc4c3F)c12 (stereo not drawn) + Cc1c(S(C)(=O)=O)c(-c2cc(F)cc(N3CCN(c4ccc(NS(=O)(=O)c5ccc(NC(CCN6CCC(C(=O)OCCCP(=O)(O)O)CC6)CSc6ccccc6)c(S(=O)(=O)C(F)(F)F)c5)cc4)CC3)c2)c(-c2ccc(Cl)cc2)n1C(C)C 63.8

What value of viability, T/C has been recorded for this entry: CCN1CCN(Cc2ccc(Nc3ncc(F)c(-c4cc(F)c5nc(C)n(C(C)C)c5c4)n3)nc2)CC1 + Cc1c(S(C)(=O)=O)c(-c2cc(F)cc(N3CCN(c4ccc(NS(=O)(=O)c5ccc(NC(CCN6CCC(C(=O)OCCCP(=O)(O)O)CC6)CSc6ccccc6)c(S(=O)(=O)C(F)(F)F)c5)cc4)CC3)c2)c(-c2ccc(Cl)cc2)n1C(C)C 62

What value of viability, T/C has been recorded for this entry: CNC(C)C(=O)NC1CN(S(=O)(=O)c2cccc(S(=O)(=O)N3CCC4CCC(C(=O)NC(c5ccccc5)c5ccccc5)N4C(=O)C(NC(=O)C(C)NC)C3)c2)CCC2CCC(C(=O)NC(c3ccccc3)c3ccccc3)N2C1=O (stereo not drawn) + Cc1c(S(C)(=O)=O)c(-c2cc(F)cc(N3CCN(c4ccc(NS(=O)(=O)c5ccc(NC(CCN6CCC(C(=O)OCCCP(=O)(O)O)CC6)CSc6ccccc6)c(S(=O)(=O)C(F)(F)F)c5)cc4)CC3)c2)c(-c2ccc(Cl)cc2)n1C(C)C 28.6

###

- System: 556581-035-R-J1-PDC complex spheroid growth
- experiment: Anticancer human tumor 556581-035-R-J1-PDC cell line growth inhibition [Asc]; active = viability on the fitted dose curve at most 10% of control; inactive = the rest;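 also: spheroids exposed to agents for 7 days before viability read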
- condition-context: second compound 3.16 µM; first compound 1 µM
Entry note: the call must match one of active, inactive

State the result this test recorded for O=C(c1ccc(F)c(F)c1Nc1ccc(I)cc1F)N1CC(O)([C@@H]2CCCCN2)C1 + Cc1c(S(C)(=O)=O)c(-c2cc(F)cc(N3CCN(c4ccc(NS(=O)(=O)c5ccc(NC(CCN6CCC(C(=O)OCCCP(=O)(O)O)CC6)CSc6ccccc6)c(S(=O)(=O)C(F)(F)F)c5)cc4)CC3)c2)c(-c2ccc(Cl)cc2)n1C(C)C . active

State the result this test recorded for C=C(F)C(=O)N1CCN(c2nc(OCC3CCCN3C)nc3c2CCN(c2cccc4cccc(Cl)c24)C3)CC1CC#N (configuration not stated) + Cc1c(S(C)(=O)=O)c(-c2cc(F)cc(N3CCN(c4ccc(NS(=O)(=O)c5ccc(NC(CCN6CCC(C(=O)OCCCP(=O)(O)O)CC6)CSc6ccccc6)c(S(=O)(=O)C(F)(F)F)c5)cc4)CC3)c2)c(-c2ccc(Cl)cc2)n1C(C)C . inactive

###

Assign viability, T/C to each entry below.
- Tested on: 556581-035-R-J1-PDC complex spheroid growth
- experiment: Anticancer human tumor 556581-035-R-J1-PDC cell line growth inhibition [Asc];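 also: spheroids exposed to agents for 7 days before viability read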
- condition-context: second compound 3.16 µM; first compound 0.0316 µM; hits give low values
Dear colleague, please return just the value in %, with no unit written.

What value of viability, T/C has been recorded for this entry: C=CC(=O)N1CCN(c2nc(=O)n(-c3c(C)ccnc3C(C)C)c3nc(-c4c(O)cccc4F)c(F)cc23)C(C)C1 (stereo not drawn) + Cc1c(S(C)(=O)=O)c(-c2cc(F)cc(N3CCN(c4ccc(NS(=O)(=O)c5ccc(NC(CCN6CCC(C(=O)OCCCP(=O)(O)O)CC6)CSc6ccccc6)c(S(=O)(=O)C(F)(F)F)c5)cc4)CC3)c2)c(-c2ccc(Cl)cc2)n1C(C)C 72.1

What value of viability, T/C has been recorded for this entry: O=C(c1cc(Cc2n[nH]c(=O)c3ccccc23)ccc1F)N1CCN(C(=O)C2CC2)CC1 + Cc1c(S(C)(=O)=O)c(-c2cc(F)cc(N3CCN(c4ccc(NS(=O)(=O)c5ccc(NC(CCN6CCC(C(=O)OCCCP(=O)(O)O)CC6)CSc6ccccc6)c(S(=O)(=O)C(F)(F)F)c5)cc4)CC3)c2)c(-c2ccc(Cl)cc2)n1C(C)C 63.4

What value of viability, T/C has been recorded for this entry: Cn1ncnc1[C@H]1c2n[nH]c(=O)c3cc(F)cc(c23)N[C@@H]1c1ccc(F)cc1 + Cc1c(S(C)(=O)=O)c(-c2cc(F)cc(N3CCN(c4ccc(NS(=O)(=O)c5ccc(NC(CCN6CCC(C(=O)OCCCP(=O)(O)O)CC6)CSc6ccccc6)c(S(=O)(=O)C(F)(F)F)c5)cc4)CC3)c2)c(-c2ccc(Cl)cc2)n1C(C)C 64.4
